Source: patent US7348425B2

Biological target: HCV NS5B RdRp genotype 1b (Hepatitis C virus genotype 1b)
Construct: The protein was expressed with an 18 amino acid C-terminal truncation to enhance the solubility; made in house; host or cells: E. coli BL21 (DE3), pET21a
Sequence (Q9WMX2 2420-2992): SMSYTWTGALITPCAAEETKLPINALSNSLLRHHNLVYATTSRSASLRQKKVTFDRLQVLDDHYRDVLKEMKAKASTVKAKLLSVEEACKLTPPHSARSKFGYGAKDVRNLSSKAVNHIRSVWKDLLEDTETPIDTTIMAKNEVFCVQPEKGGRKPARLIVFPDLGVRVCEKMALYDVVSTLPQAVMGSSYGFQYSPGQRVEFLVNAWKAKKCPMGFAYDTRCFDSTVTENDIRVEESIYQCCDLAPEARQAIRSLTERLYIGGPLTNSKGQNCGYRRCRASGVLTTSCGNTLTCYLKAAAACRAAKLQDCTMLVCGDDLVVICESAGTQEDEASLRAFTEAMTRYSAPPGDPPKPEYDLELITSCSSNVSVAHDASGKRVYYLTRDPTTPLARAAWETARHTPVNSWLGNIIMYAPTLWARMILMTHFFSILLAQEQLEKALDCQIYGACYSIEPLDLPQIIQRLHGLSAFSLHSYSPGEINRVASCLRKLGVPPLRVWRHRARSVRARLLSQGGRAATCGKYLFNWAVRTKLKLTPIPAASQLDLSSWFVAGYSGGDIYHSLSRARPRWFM
Assay: Modified HCV NS5B RdRp enzyme assay (with preincubation)
Format: biochemical
Details: modified method (with preincubation)
pIC50: −log10 of the molar value.
Item-by-item account of pIC50

The examples below pair each entry with its known result.
compound: CC(C)(C)OC(=O)N1CCCCn2c(c(C3CCCCC3)c3ccc(C(=O)O)cc32)-c2cnccc21
pIC50: < 6.00
--
compound: CC1=C(C(=O)N2CCOCC2)Cn2c(c(C3CCCCC3)c3ccc(C(=O)O)cc32)-c2ccccc21
pIC50: 6.00 to 7.70
--
compound: CN(C)S(=O)(=O)NC(=O)c1ccc2c(C3CCCCC3)c3n(c2c1)CC(C(=O)N1CCOCC1)Cc1cccnc1-3 (centres unmarked)
pIC50: 6.00 to 7.70
--
compound: O=C(O)c1ccc2c(c1)C1CCN(C(=O)N3CCOCC3)c3ccccc3C1=C2C1CCCCC1 (centres unmarked)
pIC50: < 6.00
--
compound: COC(=O)/C=C/c1ccc(NC(=O)C2(NC(=O)c3ccc4c(C5CCCCC5)c5n(c4c3)C[C@@H](O)[C@@H](O)c3ncccc3-5)CCCC2)cc1
pIC50: 6.00 to 7.70

Consider NC(=O)c1ccc2c(C3CCCCC3)c3n(c2c1)CCCc1ncccc1-3 . Its measured pIC50 is 6.00 to 7.70

Consider O=C(C1=Cc2ccccc2-c2c(C3CCCCC3)c3ccc(C(=O)N4CCOCC4)cc3n2C1)N1CCOCC1 . Its measured pIC50 is < 6.00

Consider CCOC(=O)/C=C/c1ccc(NC(=O)C2(NC(=O)c3ccc4c(C5CCCCC5)c5n(c4c3)CCCc3cc(O)ccc3-5)CCCC2)cc1 . Its measured pIC50 is < 6.00

Consider O=C(NS(=O)(=O)C1CC1)c1ccc2c(C3CCCCC3)c3n(c2c1)CCCc1ncccc1-3 . Its measured pIC50 is 6.00 to 7.70

Consider CN(C)S(=O)(=O)NC(=O)c1ccc2c(C3CCCCC3)c3n(c2c1)CC(C(=O)N1CCOCC1)=Cc1cccnc1-3 . Its measured pIC50 is 6.00 to 7.70

Consider CCN(CC)S(=O)(=O)NC(=O)c1ccc2c(C3CCCCC3)c3n(c2c1)CC(C(=O)N1CCOCC1)=Cc1ccccc1-3 . Its measured pIC50 is 6.00 to 7.70

Consider Cn1cnc(S(=O)(=O)NC(=O)c2ccc3c(C4CCCCC4)c4n(c3c2)CC=Cc2ncccc2-4)c1 . Its measured pIC50 is 6.00 to 7.70

Consider CN1C(=O)Cn2c(c(C3CCCCC3)c3ccc(C(=O)NC4(C(=O)Nc5ccc6c(c5)cc(C(=O)O)n6C)CCCC4)cc32)-c2ccccc21 . Its measured pIC50 is 6.00 to 7.70

Consider O=C(O)c1ccc2c(C3CCCCC3)c3n(c2c1)C/C(=N/O)Cc1ccccc1-3 . Its measured pIC50 is 6.00 to 7.70

Consider COC(=O)c1ccc2c(C3CCCCC3)c3n(c2c1)CC(C(=O)O)=Cc1cc(OCc2ccccc2)ccc1-3 . Its measured pIC50 is < 6.00

Consider COC(=O)c1ccc(CN(C)S(=O)(=O)NC(=O)c2ccc3c(C4CCCCC4)c4n(c3c2)CC(=O)Nc2ccccc2-4)cc1 . Its measured pIC50 is 6.00 to 7.70

Consider Cn1cnc(S(=O)(=O)NC(=O)c2ccc3c(C4CCCCC4)c4n(c3c2)C[C@@H](O)[C@@H](O)c2ncccc2-4)c1 . Its measured pIC50 is 6.00 to 7.70
